TARGET_OF_ASSAY: c-Src SH2;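 also: peptide library displayed on the E. coli surface as eCPX fusions, selected cells deep-sequenced, score is each peptide's frequency after selection divided by its frequency in the input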
TEST_SUMMARY: SH2 binding enrichment of the phosphorylated peptide, bacterial display (enrichment ratio); higher = better substrate or ligand; peptides without Tyr show the background
QUANTITY_KIND: SH2 binding enrichment

For orientation, consider the following solved cases.
// lookup SH2 binding enrichment for DHFNQYEQQKM [CHD7_Y75_YF]
0.501

// lookup SH2 binding enrichment for DLDATYRPMYS [JUP_Y701_M697L]
0.502

// lookup SH2 binding enrichment for QDDTVYMGKVI [DCTN1_Y1244_T1249I]
0.389

// lookup SH2 binding enrichment for SVTCTYSPAFN [TP53_Y126_L130F]
0.463

// lookup SH2 binding enrichment for ISSLDYISKTK [VAV3_Y294]
0.419

a: FYVVRYCWLRR [MPZ_Y181]
b: GGPAEYLRRAS [PKLR_Y38_G37E]
c: CVAARYMDMKG [WFIKKN2_Y93_V96M]
# rank by SH2 binding enrichment, ascending (min first) Enter labels, ranked according to the request.
b, a, c

1: AHAGEYGAVAL [HBA1_Y25_E28V]
2: IEPCIYIPEDD [XPNPEP3_Y455_G453C]
3: PYSEPYADYGG [APBA1_Y187]
4: ALKKPYGVLFK [RPF2_Y59_YF]
Arrange these sequences by their SH2 binding enrichment, starting with the largest number. Enter labels, ranked according to the request.
3, 4, 2, 1

a: EWKQKYEESQS [MYH6_Y1462]
b: DPYHVYIKNHV [KCNE3_Y95_R99H]
c: SVTCTYSPAHN [TP53_Y126_L130H]
d: SLFNGYVFSGM [NEIL3_Y71_V76M_YF]
Arrange these sequences by their SH2 binding enrichment, starting with the largest number. Enter labels, ranked according to the request.
d, b, a, c
